- TARGET_UNDER_TEST: T1, Recombinant His-tagged human CD36.ECD protein (Sino Biological) (human, UniProt P16671 30-439)
- T1 construct: Bought protein; also called hCD36.ECD; hCD36; not shown: His tag
- PROTOCOL_NOTES: ELISA, coated human CD36.ECD (FIG. 2B)
OBSERVED_PROPERTY: EC50 (nM)
Give a bare numeral; the unit nM is implied.

For the binder 117_30A (antibody, V domains shown, full-length IgG, human kappa) VH: EVQLVESGGGLVQPGGSLRLSCAASGFTIASFGIHWVRQAPGKGLEWVAWIAPYGGYTYYADSVKGRFTISADTSKNTAYLQMNSLRAEDTAVYYCARSFFGYFDYWGQGTLVTVSS VL: DIQMTQSPSSLSASVGDRVTITCRASQDVSNWVAWYQQKPGKAPKLLISYATSLYSGVPSRFSGSGSGTDFTLTISSLQPEDFATYYCQQHSNAPLTFGQGTKVEIKR , what EC50 is on record?
0.0964

For the binder 117_28A (antibody, V domains shown, full-length IgG, human kappa) VH: EVQLVESGGGLVQPGGSLRLSCAASGFAISSFGIHWVRQAPGKGLEWVAWIAPYGGYTYYADSVKGRFTISADTSKNTAYLQMNSLRAEDTAVYYCARSFFGYFDYWGQGTLVTVSS VL: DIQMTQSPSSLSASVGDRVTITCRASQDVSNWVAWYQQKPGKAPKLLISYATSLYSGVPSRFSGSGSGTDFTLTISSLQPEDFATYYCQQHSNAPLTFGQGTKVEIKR , what EC50 is on record?
0.129

For the binder 117_32D (antibody, V domains shown, full-length IgG, human kappa) VH: EVQLVESGGGLVQPGGSLRLSCAASGFTISSDGIHWVRQAPGKGLEWVAWIAPYGGYTYYADSVKGRFTISADTSKNTAYLQMNSLRAEDTAVYYCARSFFGYFDYWGQGTLVTVSS VL: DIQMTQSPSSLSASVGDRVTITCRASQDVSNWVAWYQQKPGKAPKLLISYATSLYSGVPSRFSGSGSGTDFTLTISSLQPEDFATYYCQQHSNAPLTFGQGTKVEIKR , what EC50 is on record?
0.0276
